tested on: MS2 coat protein; assay: apparent KD of MS2 coat protein; designed switch direction (-1 OFF switch, 1 ON switch): -1; higher = weaker reporter binding; details: input ligand: FMN 200 uM
Reported Property: apparent KD of MS2 coat protein (nM)
Express it in nM; write the number only.

// known answers, use as guide
ACUGUUUGAUACCUCUAAUACAUGAGGAUCACCCAUGUUAUCGAGGAUAUGCAUUAGAGUGGUUAGCAGAAGGCGAAGUAAUUG [JR_ExcNG3_Sub031] (Eterna round: R96, puzzle: Exclusion NG 3) :: 17
CGUAAGCUAGGAUAUGCUUUGGGAAAGCAUUCCUUCGAUAAACUUGAGGAUCACCCAAGUAGAAGGAGCUUACA [salish99_ex2_r4_012] (Eterna round: R97, puzzle: Exclusion 2) :: 18.2

Attention now turns to another entry.
Given the entry AGAUAGUGCAGAGGAUAUCGUAAUAGAAAGAAUCGAGAAGGCUGACAUGAGGAUCACCCAUGUGAUGUCUUGAGACUACAUGGU [Prohibition 34 - Jieux - Exclusion NG 1] (Eterna round: R96, puzzle: Exclusion NG 1) , what apparent KD of MS2 coat protein was observed with MS2 coat protein?
460
